- Measurement description: In Vitro Stability Assay—Mouse Plasma
- Assay type: in vitro ADME
- Condition summary: attachment position L11B; % DAR remaining after plasma 3 or 4.5 days
*1 amine or outer side, *2 acyl side, *3 side chain or, on linkers, in order; H or OH if unused. Where a SMILES comes first, the peptide text is derived from it. [ ]: non-standard residue; d: D form. The star is where a group is joined. Dolaproine = CO[C@@H]([C@@H]1CCCN1)[C@@H](C)C(=O)O; Dil = CC[C@H](C)[C@H](NC)[C@@H](CC(=O)O)OC; PABC = O=C(OCc1ccc(N[*:1])cc1)[*:2]; Doe = c1ccc(C[C@H](N*)c2nccs2)cc1; Cit = NC(=O)NCCC[C@H](N)C(=O)O; Isobutyryl = CC(C)C(=O)*; X1 = NCCOCCOCCOCCOCCOCC*; Lac = C[C@H](O)C(=O)O; Aib = CC(C)(N)C(=O)O; Ethyl(2-NH2) = NCC*; Ms = CS(=O)(=O)*
Conjugate stability (%) vs 20%: less than gives Fulfilled; not less than gives Not fulfilled.

Before answering, review these 2 worked examples.
CC[C@H](C)[C@@H]([C@@H](CC(=O)N1CCC[C@H]1[C@H](OC)[C@@H](C)C(=O)N[C@@H](Cc1ccccc1)c1nccs1)OC)N(C)C(=O)[C@@H](NC(=O)C(C)(C)NC(=O)OCc1ccc(NC(=O)[C@H](CCCNC(N)=O)NC(=O)[C@@H](NC(=O)[C@H](CCCCN)NC(=O)[C@H](N)CO)C(C)C)cc1)C(C)C [Example 39] (H-[dS]KV[Cit][PABC][Aib]V[Dil][Dolaproine]-Doe) = Not fulfilled
CC[C@H](C)[C@@H]([C@@H](CC(=O)N1CCC[C@H]1[C@H](OC)[C@@H](C)C(=O)N[C@@H](Cc1ccccc1)c1nccs1)OC)N(C)C(=O)[C@@H](NC(=O)C(C)(C)NC(=O)OCc1ccc(NC(=O)[C@H](CCCNC(N)=O)NC(=O)[C@@H](NC(=O)[C@H](CCCCN)NC(=O)[C@H](C)O)C(C)C)cc1)C(C)C [Example 40] (H-[Lac]KV[Cit][PABC][Aib]V[Dil][Dolaproine]-Doe) = Not fulfilled

Field: below-cutoff. Rule: recorded Conjugate stability (%) strictly less than 20%. Subject: CC[C@H](C)[C@@H]([C@@H](CC(=O)N1CCC[C@H]1[C@H](OC)[C@@H](C)C(=O)N[C@@H](Cc1ccccc1)c1nccs1)OC)N(C)C(=O)[C@@H](NC(=O)C(C)(C)NC(=O)OCc1ccc(NC(=O)[C@H](CCCNC(N)=O)NC(=O)[C@@H](NC(=O)[C@H](CCCCN)NC(=O)C(C)(C)N)C(C)C)cc1)C(C)C [Example 31] (H-[Aib]KV[Cit][PABC][Aib]V[Dil][Dolaproine]-Doe)
Fulfilled

For this compound, is Conjugate stability (%) lower than 20%? CC[C@H](C)[C@@H]([C@@H](CC(=O)N1CCC[C@H]1[C@H](OC)[C@@H](C)C(=O)N[C@@H](Cc1ccccc1)c1nccs1)OC)N(C)C(=O)[C@@H](NC(=O)C(C)(C)NC(=O)OCc1ccc(NC(=O)[C@H](CCCNC(N)=O)NC(=O)[C@@H](NC(=O)[C@H](CCCCN)NC(=O)C(C)C)C(C)C)cc1)C(C)C [Example 7] (Isobutyryl-KV[Cit][PABC][Aib]V[Dil][Dolaproine]-Doe)
Fulfilled

Is Conjugate stability (%) of CC[C@H](C)[C@@H]([C@@H](CC(=O)N1CCC[C@H]1[C@H](OC)[C@@H](C)C(=O)N[C@@H](Cc1ccccc1)c1nccs1)OC)N(C)C(=O)[C@@H](NC(=O)C(C)(C)NC(=O)OCc1ccc(NC(=O)[C@H](CCCNC(N)=O)NC(=O)[C@@H](NC(=O)[C@H](CCCCN)NS(C)(=O)=O)C(C)C)cc1)C(C)C [Example 44] (Ms-KV[Cit][PABC][Aib]V[Dil][Dolaproine]-Doe) strictly below 20%?
Fulfilled

Report whether reported Conjugate stability (%) is lower than 20% (strictly) for CC[C@H](C)[C@@H]([C@@H](CC(=O)N1CCC[C@H]1[C@H](OC)[C@@H](C)C(=O)N[C@@H](Cc1ccccc1)c1nccs1)OC)N(C)C(=O)[C@@H](NC(=O)C(C)(C)NC(=O)OCc1ccc(NC(=O)[C@H](CCCNC(N)=O)NC(=O)[C@@H](NC(=O)[C@H](COCCOCCOCCOCCOCCOCCN)NC(C)=O)C(C)C)cc1)C(C)C [Example 48] (Ac-S(X1)V[Cit][PABC][Aib]V[Dil][Dolaproine]-Doe)
Fulfilled

Does the reported Conjugate stability (%) of CC[C@H](C)[C@@H]([C@@H](CC(=O)N1CCC[C@H]1[C@H](OC)[C@@H](C)C(=O)N[C@@H](Cc1ccccc1)c1nccs1)OC)N(C)C(=O)[C@@H](NC(=O)C(C)(C)NC(=O)OCc1ccc(NC(=O)[C@H](CCCNC(N)=O)NC(=O)[C@@H](NC(=O)[C@H](CCCCN)NC(=O)CN)C(C)C)cc1)C(C)C [Example 29] (H-GKV[Cit][PABC][Aib]V[Dil][Dolaproine]-Doe) stay below 20%?
Not fulfilled

Lab log: compare recorded Conjugate stability (%) with 20%; is it strictly lower for CC[C@H](C)[C@@H]([C@@H](CC(=O)N1CCC[C@H]1[C@H](OC)[C@@H](C)C(=O)N[C@@H](Cc1ccccc1)c1nccs1)OC)N(C)C(=O)[C@@H](NC(=O)C(C)(C)NC(=O)OCc1ccc(NC(=O)[C@H](CCCNC(N)=O)NC(=O)[C@@H](NC(=O)[C@@H](COCCN)NC(C)=O)C(C)C)cc1)C(C)C [Example 46] (Ac-[dS](Ethyl(2-NH2))V[Cit][PABC][Aib]V[Dil][Dolaproine]-Doe) ?
Not fulfilled

Given CC[C@H](C)[C@@H]([C@@H](CC(=O)N1CCC[C@H]1[C@H](OC)[C@@H](C)C(=O)N[C@@H](Cc1ccccc1)c1nccs1)OC)N(C)C(=O)[C@@H](NC(=O)C(C)(C)NC(=O)OCc1ccc(NC(=O)[C@H](CCCNC(N)=O)NC(=O)[C@@H](NC(=O)[C@H](CCCCN)NC(=O)[C@@H](C)N)C(C)C)cc1)C(C)C [Example 35] (H-[dA]KV[Cit][PABC][Aib]V[Dil][Dolaproine]-Doe) , is recorded Conjugate stability (%) strictly lower than 20%?
Not fulfilled
